Target sequence: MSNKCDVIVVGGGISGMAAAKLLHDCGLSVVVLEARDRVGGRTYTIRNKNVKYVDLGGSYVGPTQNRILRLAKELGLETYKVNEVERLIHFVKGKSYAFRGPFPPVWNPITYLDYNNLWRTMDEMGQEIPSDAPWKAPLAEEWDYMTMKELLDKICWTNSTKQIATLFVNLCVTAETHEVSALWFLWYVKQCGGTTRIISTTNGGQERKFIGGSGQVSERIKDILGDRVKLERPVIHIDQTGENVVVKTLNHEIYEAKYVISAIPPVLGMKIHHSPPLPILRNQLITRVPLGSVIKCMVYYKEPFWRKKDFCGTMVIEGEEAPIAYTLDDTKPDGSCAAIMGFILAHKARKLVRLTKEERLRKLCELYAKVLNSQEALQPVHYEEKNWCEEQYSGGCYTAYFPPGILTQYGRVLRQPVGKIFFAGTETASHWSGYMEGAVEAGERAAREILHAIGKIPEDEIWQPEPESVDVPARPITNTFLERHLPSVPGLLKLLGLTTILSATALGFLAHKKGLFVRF
pIC50: −log10 of the molar value.
endpoint: pIC50

COc1ccc2c(c1)C(=O)/C(=C/c1cc(OC)c(Br)cc1OC)O2 : 4.87
COc1ccc(OC)c(/C=C/C(=O)c2c(O)cccc2OC)c1 : 4.96
